B1: Caulobacter ParB omega fusion; a variant is named by its letters at X, in order, B8GW30 (parent)
chain: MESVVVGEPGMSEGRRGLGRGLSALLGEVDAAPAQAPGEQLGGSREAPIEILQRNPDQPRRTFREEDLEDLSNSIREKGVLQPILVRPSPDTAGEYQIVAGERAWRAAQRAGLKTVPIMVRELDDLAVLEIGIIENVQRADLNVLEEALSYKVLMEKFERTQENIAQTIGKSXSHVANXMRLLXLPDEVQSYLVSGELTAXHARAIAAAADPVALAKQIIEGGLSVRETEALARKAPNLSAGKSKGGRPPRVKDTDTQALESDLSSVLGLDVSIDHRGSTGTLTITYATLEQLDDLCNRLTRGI

# Variants of: B1
# runDescription: one-hybrid fitness for binding parS DNA (scaled: cognate 1, non-cognate 0); higher = stronger binding
# details: with parS DNA site
The full ranking holds about 81,000 sequences; the median of “one-hybrid fitness for binding parS DNA” is about -0.17, and the highest 2% start at about 0.51. The entries come from a sample that favours the highest values as a whole.
Form field: one-hybrid fitness for binding parS DNA (one value per entry).

Here's what some known entries look like.
>>> print(df.to_string())
   mutations  obsvalue
0       RWLW     ≤ 0.2
1       VQAA     ≤ 0.2

Q. // one-hybrid fitness for binding parS DNA lookup, key: `RLQP`
A. 0.206

Q. Which one-hybrid fitness for binding parS DNA reading was recorded for the variant `RFNE` ?
A. ≤ 0.2

Q. Item under review: `TSPA` . Reported one-hybrid fitness for binding parS DNA?
A. ≤ 0.2

Source of measurements: a collection of fitness landscapes (doi:10.1016/j.celrep.2020.107928)
